# systemName: T1, human CCR8 (human, UniProt P51685 1-355)
# T1 construct: whole, on cells; also called hCCR8
# T1 sequence (P51685 whole entry): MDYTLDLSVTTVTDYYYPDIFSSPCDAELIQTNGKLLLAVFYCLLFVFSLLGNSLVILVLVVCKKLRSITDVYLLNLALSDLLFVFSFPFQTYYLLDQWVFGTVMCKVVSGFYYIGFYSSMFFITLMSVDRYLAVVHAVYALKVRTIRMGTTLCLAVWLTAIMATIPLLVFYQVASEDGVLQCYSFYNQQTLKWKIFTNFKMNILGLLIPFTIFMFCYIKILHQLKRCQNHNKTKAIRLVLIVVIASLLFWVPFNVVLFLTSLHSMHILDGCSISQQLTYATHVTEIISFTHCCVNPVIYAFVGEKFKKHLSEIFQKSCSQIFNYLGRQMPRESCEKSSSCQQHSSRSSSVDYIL
# experimentSummary: FACS on HEK293-human CCR8 cells
# Description: Binding affinities of NG site removed antibodies were determined on human CCR8 and cynomolgus CCR8 overexpression cells. Briefly, CFSE labeled HEK293-human CCR8 cells or CFSE labeled HEK293-cynomolgus CCR8 cells were mixed with HEK293 cells. The mixed ratio was 1:1. […] Data was plotted as the logarithm of antibody concentration versus mean fluorescence signals. EC₅₀ values were calculated in GraphPad Prism 8 (GraphPad Software) using a log (agonist) vs. response-Variable slope (4 parameters) curve fit.
experimentalReadout: Max MFI (MFI)
Record the value in MFI, omitting the unit from your answer.

[[record]]
binder = "149F2C10_G29V (antibody, V domains shown, NG site removed variant of 149F2C10) VH: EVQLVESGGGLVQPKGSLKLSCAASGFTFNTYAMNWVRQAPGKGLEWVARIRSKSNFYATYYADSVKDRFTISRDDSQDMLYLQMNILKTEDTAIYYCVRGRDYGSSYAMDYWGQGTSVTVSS VL: DIVMTQAAPSVPVTPGESVSISCRSSKSLLHSNVNTYLYWFLQRPGQSPQLLIYRMSNLASGVPDRFSGSGSGTAFTLRISRVEAEDVGVYYCMQHLEYPLTFGAGTKLELK"
readingunit = "MFI"
valuereported = 1900


Turning to the following binder.
For 149F2C10-CHO (antibody, V domains shown, The suffix -CHO is not explained) VH: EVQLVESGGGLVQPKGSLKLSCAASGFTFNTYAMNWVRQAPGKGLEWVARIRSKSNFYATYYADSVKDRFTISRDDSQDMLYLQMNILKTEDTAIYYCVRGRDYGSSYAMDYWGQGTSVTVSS VL: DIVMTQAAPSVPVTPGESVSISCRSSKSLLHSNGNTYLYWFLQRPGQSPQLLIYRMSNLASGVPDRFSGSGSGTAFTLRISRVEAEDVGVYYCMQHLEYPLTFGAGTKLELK , what is its reported Max MFI?
1740
